// provenance: ChEMBL document CHEMBL1137675

Hi there, I'd appreciate the recorded diameter of the inhibition zone (DIZ) for every entry that follows.
- Tested on: Staphylococcus aureus
- assay_text: Antibacterial activity against Staphylococcus aureus MSSA 22 at 37 degC after 24 hrs by filter paper disk method
- Assay type: functional
Enter your answer as a number in mm; do not include the unit.

Which value of diameter of the inhibition zone (DIZ) has been reported for C=CCCCCCCCCc1nc2ccccc2[nH]1 in the records? 20

Field request: diameter of the inhibition zone (DIZ) | item: CCCCC/C=C\CC[C@H](O)CCCCCCCc1nc2cc([N+](=O)[O-])ccc2[nH]1 19

Query (compound): C=CCCCCCCCCc1nc2c([nH]1)CCCC2 ; field requested: diameter of the inhibition zone (DIZ) 18
